system: P. aeruginosa PAO1; test: MIC assay in the presence of a bacterial efflux pump inhibitor (EPI); format: cell-based, Pseudomonas aeruginosa; settings: P. aeruginosa PAO1; with 12.5 ug/ml of EPI (2S,4R)-4-(ammoniomethyl)-2-((6-(4-fluorophenyl)-1H-indole-2-carboxamido)methyl)pyrrolidin-1-ium
READOUT TYPE: Antibiotic Activity Against P. aeruginosa MIC with EPI

Example cases with answers are listed next.
| COMPOUND | MEASUREMENT TARGET | RECORDED MEASUREMENT |
| --- | --- | --- |
| NCCNC(=O)C1Cc2c([nH]c3ccc(Br)cc23)C(N)C1 (stereo not shown) | P. aeruginosa PAO1 | >256 µg/mL |
| NC1CCCc2c1[nH]c1ccc(-c3ccc(F)cc3)cc21 (stereo not shown) | P. aeruginosa PAO1 | 4 µg/mL |
| CNCC1Cc2c([nH]c3ccc(Br)cc23)C(N)C1 (stereo not shown) | P. aeruginosa PAO1 | 64 µg/mL |
| NC1CC(c2ccccc2)Cc2c1[nH]c1ccc(Br)cc21 (stereo not shown) | P. aeruginosa PAO1 | 8 µg/mL |
| CC(C)C1Cc2c([nH]c3cc(Cl)c(Cl)cc23)C(N)C1 (stereo not shown) | P. aeruginosa PAO1 | 4 µg/mL |
| CC1(C)Cc2c([nH]c3ccc(Br)cc23)C(N)C1 (stereo not shown) | P. aeruginosa PAO1 | 4 µg/mL |
| Cl.NC1c2[nH]c3ccc(Br)cc3c2CCC1F (stereo not shown) | P. aeruginosa PAO1 | 32 µg/mL |
| CN(C)C(=O)C1Cc2c([nH]c3ccc(Br)cc23)C(N)C1 (stereo not shown) | P. aeruginosa PAO1 | 128 µg/mL |
| NC1CCCc2c1[nH]c1ccc(Cl)c(Cl)c21 (stereo not shown) | P. aeruginosa PAO1 | <0.125 µg/mL |

Next compound, Antibiotic Activity Against P. aeruginosa MIC with EPI to be filled in.
Asked: For N#Cc1ccc2[nH]c3c(c2c1)CCCC3N (stereo not shown) , what is its reported Antibiotic Activity Against P. aeruginosa MIC with EPI?
Given back: 32 µg/mL

====

Reported Antibiotic Activity Against P. aeruginosa MIC with EPI values follow for various molecules
test system: P. aeruginosa PAO1; experiment: MIC assay in the presence of a bacterial efflux pump inhibitor (EPI); type: cell-based, Pseudomonas aeruginosa; conditions: P. aeruginosa PAO1; with 12.5 ug/ml of EPI (2S,4R)-4-(ammoniomethyl)-2-((6-(4-fluorophenyl)-1H-indole-2-carboxamido)methyl)pyrrolidin-1-ium
Respond numerically; units are µg/mL and should not be typed.

Asked: Value lookup for Antibiotic Activity Against P. aeruginosa MIC with EPI; key = NC1CC(C(=O)O)Cc2c1[nH]c1ccc(Br)cc21 (centres unmarked)
Given back: 256

Asked: // lookup Antibiotic Activity Against P. aeruginosa MIC with EPI for NC1CCCc2c1[nH]c1c(Br)cccc21 (centres unmarked)
Given back: 128

Asked: # input molecule: NC1CCCc2c1[nH]c1ccc(Br)cc21 (centres unmarked) ; wanted: its Antibiotic Activity Against P. aeruginosa MIC with EPI
Given back: 0.5

Asked: Report Antibiotic Activity Against P. aeruginosa MIC with EPI for NC1CCCc2c1[nH]c1ccc(-c3ccc(C(F)(F)F)cc3)cc21 (centres unmarked) please.
Given back: 4

====

tested on: P. aeruginosa PAO1; experiment: MIC assay in the presence of a bacterial efflux pump inhibitor (EPI); format: cell-based, Pseudomonas aeruginosa; details: P. aeruginosa PAO1; with 12.5 ug/ml of EPI (2S,4R)-4-(ammoniomethyl)-2-((6-(4-fluorophenyl)-1H-indole-2-carboxamido)methyl)pyrrolidin-1-ium
Property: Antibiotic Activity Against P. aeruginosa MIC with EPI; scope: individual compounds
Write down the numeric answer in µg/mL and omit the unit.

Here are 3 compounds together with their reported answers.
| COMPOUND | RECORDED MEASUREMENT |
| --- | --- |
| NC1CCCc2c1[nH]c1cc(Cl)c(Cl)cc21 (centres unmarked) | 4 |
| CC(C)(C)C1Cc2c([nH]c3ccc(Br)cc23)C(N)C1 (centres unmarked) | 8 |
| COc1ccc2[nH]c3c(c2c1)CCCC3N.Cl (centres unmarked) | 32 |

We now examine a further compound.
Asked: Requested read-out: Antibiotic Activity Against P. aeruginosa MIC with EPI. Entry: NC1CCCc2c1[nH]c1ccc(Cl)cc21 (centres unmarked)
Given back: 1

====

Here, each record is paired with measured Antibiotic Activity Against P. aeruginosa MIC with EPI data.
tested on: P. aeruginosa PAO1; assay: MIC assay in the presence of a bacterial efflux pump inhibitor (EPI); format: cell-based, Pseudomonas aeruginosa; conditions: P. aeruginosa PAO1; with 12.5 ug/ml of EPI (2S,4R)-4-(ammoniomethyl)-2-((6-(4-fluorophenyl)-1H-indole-2-carboxamido)methyl)pyrrolidin-1-ium
Reply with just the number (in µg/mL).

Consider the following illustrative entries.
| COMPOUND | RECORDED MEASUREMENT |
| --- | --- |
| Cl.NC(=O)C1Cc2c([nH]c3ccc(Br)cc23)C(N)C1 (stereo not shown) [Example 34] | 256 |
| Cn1c2c(c3cc(Br)ccc31)CCCC2N (stereo not shown) [Example 19] | 64 |
| NC1CCCc2c1[nH]c1ccc(F)cc21 (stereo not shown) [Example 12] | 2 |
| CCOC(=O)C1Cc2c([nH]c3ccc(Br)cc23)C(N)C1 (stereo not shown) [Example 27] | 32 |
| NC1CCCc2c1[nH]c1cccc(Br)c21 (stereo not shown) [Example 5b] | 2 |

Asked: Observed Antibiotic Activity Against P. aeruginosa MIC with EPI on P. aeruginosa PAO1 for CC1CCc2c([nH]c3ccc(Br)cc23)C1N (stereo not shown) [Example 23] , please.
Given back: 16

Asked: Query for P. aeruginosa PAO1: what Antibiotic Activity Against P. aeruginosa MIC with EPI does the record show for COc1ccc(-c2ccc3[nH]c4c(c3c2)CCCC4N)cc1 (stereo not shown) [Example 3] ?
Given back: 16

Asked: Give P. aeruginosa PAO1 Antibiotic Activity Against P. aeruginosa MIC with EPI for CC1(C)CCC(N)c2[nH]c3ccc(Br)cc3c21 (stereo not shown) [Example 24]
Given back: 16

Asked: Fill in the recorded Antibiotic Activity Against P. aeruginosa MIC with EPI for this compound, with P. aeruginosa PAO1 as test system: NC1CCCc2c1[nH]c1ccc(C(F)(F)F)cc21 (stereo not shown) [Example 14]
Given back: 2
